molecules and their reported IC50
# Test system: A549 cells
# Protocol text: Cell viability MTT assay, A549
# Type: cell-based, human
# Measurement parameters: Homo sapiens, A549, 72 h, 72 h treatment, n = 3
Value expressed in µM; do not type the unit.

c1ccc2c(Cc3c[nH]c4ccccc34)c[nH]c2c1 [DIM, 3,3′-diindolylmethane, reference compound]    47
O=C(c1c[nH]c2cc(Br)ccc12)c1c[nH]c2cc(Br)ccc12 [IV]    3
O=C(c1c[nH]c2ccccc12)c1c[nH]c2ccccc12 [DIM-one, 3,3′-diindolylmethanone]    66

Ask: Quick check: IC50 of O=C(c1c[nH]c2cc(Br)ccc12)c1cn(S(=O)(=O)O)c2cc(Br)ccc12 [V] ?
Result: 27

----------
# Test system: CaV1
# Protocol text: HVA L-type calcium channel FLIPR assay in SH-SY5Y cells
# Format: cell-based, human
# Measurement parameters: 1 µM CVID present, n = 3, read-out: IC50 CaV1 (HVA CaVs)
Criterion: IC50 strictly less than 50 µM. Met: MET. Not met: NOT MET.

Would you please look over these solved cases?
O=C(c1c[nH]c2cc(Br)ccc12)c1cn(S(=O)(=O)O)c2cc(Br)ccc12    NOT MET
c1ccc2c(Cc3c[nH]c4ccccc34)c[nH]c2c1 [DIM, 3,3′-diindolylmethane, reference compound]    NOT MET
O=C(c1cn(Cc2ccccc2)c2ccccc12)c1cn(Cc2ccccc2)c2ccccc12    MET
O=C(c1c[nH]c2cc(Br)ccc12)c1c[nH]c2cc(Br)ccc12    MET
CCOC(=O)C(=O)c1c[nH]c2ccccc12    NOT MET
Cc1ccc(S(=O)(=O)n2cc(C(=O)c3cn(S(=O)(=O)c4ccc(C)cc4)c4ccccc34)c3ccccc32)cc1    MET
O=C(c1c[nH]c2ccccc12)c1cn(S(=O)(=O)O)c2ccccc12    NOT MET
O=C(c1c[nH]c2ccccc12)c1c[nH]c2ccccc12    NOT MET

Then this compound:
Ask: For CCOC(=O)C(=O)c1cn(S(=O)(=O)c2ccc(C)cc2)c2ccccc12 , is the recorded IC50 below the cut-off of 50 µM?
Result: MET

----------
# Test system: HT-29 cells
# Protocol text: Cell viability MTT assay, HT-29
# Format: cell-based, human
# Measurement parameters: Homo sapiens, HT-29, 48 h, 48 h treatment, n = 3
Assay readout: pIC50
Just so you know, pIC50 here is -log10 of the concentration in molar units; reply with that number alone.

Ask: Quick check: pIC50 of O=C(c1c[nH]c2cc(Br)ccc12)c1c[nH]c2cc(Br)ccc12 ?
Result: 5.80

----------
# Measured on: UniProtKB O95180
# Protocol text: T-type calcium channel window current FLIPR assay, CaV3.2
# Type: cell-based
# Measurement parameters: IC50 CaV3.2 (LVA CaVs), FLIPR window current, n = 3
Assay readout: pIC50
Just so you know, pIC50 here is -log10 of the concentration in molar units; reply with that number alone.

Ask: Quick check: pIC50 of O=C(c1cn(Cc2ccccc2)c2ccccc12)c1cn(Cc2ccccc2)c2ccccc12 [IX, bis(1-benzyl-1H-indol-3-yl)methanone] ?
Result: 5.52

----------
# Measured on: human CaV3.1 (Homo sapiens)
# Protocol text: T-type calcium channel window current FLIPR assay, CaV3.1
# Measurement parameters: n = 3, read-out: IC50 CaV3.1 (LVA CaVs)
# Experimental: The human embryonic kidney 293 (HEK 293) cell lines (from Emmanuel Bourinet, Montpellier, France) stably expressing CaV3.2 or CaV3.3 were cultured under 5% carbon dioxide at 37 °C in Dulbecco’s Modified Eagle Medium (DMEM) Glutamax (Gibco, Life Technologies, Carlsbad, CA, USA) supplemented with 10% (v/v) fetal bovine serum (FBS), 100 U/mL penicillin, 100 μg/mL streptomycin (Gibco, Life Technologies, Carlsbad, CA, USA), and 750 μg/mL geneticin (G418) (Gibco, Life Technologies). […]
Assay readout: IC50 (µM)
Value expressed in µM; do not type the unit.

Solved entries:
O=C(c1cn(Cc2ccccc2)c2ccccc12)c1cn(Cc2ccccc2)c2ccccc12    35.1
O=C(c1c[nH]c2ccccc12)c1cn(S(=O)(=O)O)c2ccccc12    58.8
O=C(c1c[nH]c2ccccc12)c1c[nH]c2ccccc12    158

Ask: Hi! What's the reported IC50 for Cc1ccc(S(=O)(=O)n2cc(C(=O)c3cn(S(=O)(=O)c4ccc(C)cc4)c4ccccc34)c3ccccc32)cc1 on human CaV3.1 (Homo sapiens)?
Result: 53.4

Ask: # repeat for CCOC(=O)C(=O)c1cn(S(=O)(=O)c2ccc(C)cc2)c2ccccc12
Result: 43.5

Ask: # repeat for CCOC(=O)C(=O)c1c[nH]c2ccccc12
Result: 154

Ask: # repeat for O=C(c1c[nH]c2cc(Br)ccc12)c1cn(S(=O)(=O)O)c2cc(Br)ccc12
Result: 92.1

Ask: # repeat for O=C(c1c[nH]c2cc(Br)ccc12)c1c[nH]c2cc(Br)ccc12
Result: 53.5

----------
# Measured on: CaV3.3 (Homo sapiens)
# Protocol text: T-type calcium channel window current FLIPR assay, CaV3.3
# Assay type: cell-based
# Measurement parameters: FLIPR, one separate experiment in quadruplicate (n = 4); read-out: IC50 of representative concentration-response curve, CaV3.3 window current
Assay readout: IC50

c1ccc2c(Cc3c[nH]c4ccccc34)c[nH]c2c1 [DIM, 3,3′-diindolylmethane, reference compound]    2.77 µM

Kindly consider the entry below.
Ask: Quick check: IC50 of O=C(c1c[nH]c2ccccc12)c1c[nH]c2ccccc12 ?
Result: 8.18 µM

----------
# Measured on: CaV2.2 (Homo sapiens)
# Construct: endogenous in cells
# Protocol text: HVA N-type calcium channel FLIPR assay in SH-SY5Y cells
# Measurement parameters: 10 µM nifedipine present, n = 3, read-out: IC50 CaV2.2 (HVA CaVs)
Assay readout: pIC50
Just so you know, pIC50 here is -log10 of the concentration in molar units; reply with that number alone.

O=C(c1cn(Cc2ccccc2)c2ccccc12)c1cn(Cc2ccccc2)c2ccccc12 [IX, bis(1-benzyl-1H-indol-3-yl)methanone]    4.09
c1ccc2c(Cc3c[nH]c4ccccc34)c[nH]c2c1 [DIM, 3,3′-diindolylmethane, reference compound]    4.25
O=C(c1c[nH]c2ccccc12)c1cn(S(=O)(=O)O)c2ccccc12 [III]    4.22

Kindly consider the entry below.
Ask: Hi! What's the reported pIC50 for CCOC(=O)C(=O)c1c[nH]c2ccccc12 [VI] on CaV2.2 (Homo sapiens)?
Result: 4.27

----------
# Tested on: HT-29 cells
# Protocol text: Cell viability MTT assay, HT-29
# Assay type: cell-based, human
# Measurement parameters: 72 h treatment, n = 3
Assay readout: IC50 (µM)
Value expressed in µM; do not type the unit.

Ask: Quick check: IC50 of O=C(c1c[nH]c2cc(Br)ccc12)c1c[nH]c2cc(Br)ccc12 ?
Result: 1.2

----------
# Measured on: CaV3.2 (Homo sapiens, UniProt O95180)
# Protocol text: T-type calcium channel window current FLIPR assay, CaV3.2
# Format: cell-based
# Measurement parameters: FLIPR window current, n = 3; read-out: IC50 CaV3.2 (LVA CaVs)
Assay readout: pIC50
Just so you know, pIC50 here is -log10 of the concentration in molar units; reply with that number alone.

Cc1ccc(S(=O)(=O)n2cc(C(=O)c3cn(S(=O)(=O)c4ccc(C)cc4)c4ccccc34)c3ccccc32)cc1    4.00

Ask: Hi! What's the reported pIC50 for CCOC(=O)C(=O)c1cn(S(=O)(=O)c2ccc(C)cc2)c2ccccc12 on CaV3.2 (Homo sapiens, UniProt O95180)?
Result: 4.77

Ask: # repeat for O=C(c1c[nH]c2ccccc12)c1cn(S(=O)(=O)O)c2ccccc12
Result: 3.98

----------
# Measured on: recombinant hCaV3.2 channels (Homo sapiens)
# Construct: the only CaV3.2-expressing cells described
# Sequence (O95180 whole entry): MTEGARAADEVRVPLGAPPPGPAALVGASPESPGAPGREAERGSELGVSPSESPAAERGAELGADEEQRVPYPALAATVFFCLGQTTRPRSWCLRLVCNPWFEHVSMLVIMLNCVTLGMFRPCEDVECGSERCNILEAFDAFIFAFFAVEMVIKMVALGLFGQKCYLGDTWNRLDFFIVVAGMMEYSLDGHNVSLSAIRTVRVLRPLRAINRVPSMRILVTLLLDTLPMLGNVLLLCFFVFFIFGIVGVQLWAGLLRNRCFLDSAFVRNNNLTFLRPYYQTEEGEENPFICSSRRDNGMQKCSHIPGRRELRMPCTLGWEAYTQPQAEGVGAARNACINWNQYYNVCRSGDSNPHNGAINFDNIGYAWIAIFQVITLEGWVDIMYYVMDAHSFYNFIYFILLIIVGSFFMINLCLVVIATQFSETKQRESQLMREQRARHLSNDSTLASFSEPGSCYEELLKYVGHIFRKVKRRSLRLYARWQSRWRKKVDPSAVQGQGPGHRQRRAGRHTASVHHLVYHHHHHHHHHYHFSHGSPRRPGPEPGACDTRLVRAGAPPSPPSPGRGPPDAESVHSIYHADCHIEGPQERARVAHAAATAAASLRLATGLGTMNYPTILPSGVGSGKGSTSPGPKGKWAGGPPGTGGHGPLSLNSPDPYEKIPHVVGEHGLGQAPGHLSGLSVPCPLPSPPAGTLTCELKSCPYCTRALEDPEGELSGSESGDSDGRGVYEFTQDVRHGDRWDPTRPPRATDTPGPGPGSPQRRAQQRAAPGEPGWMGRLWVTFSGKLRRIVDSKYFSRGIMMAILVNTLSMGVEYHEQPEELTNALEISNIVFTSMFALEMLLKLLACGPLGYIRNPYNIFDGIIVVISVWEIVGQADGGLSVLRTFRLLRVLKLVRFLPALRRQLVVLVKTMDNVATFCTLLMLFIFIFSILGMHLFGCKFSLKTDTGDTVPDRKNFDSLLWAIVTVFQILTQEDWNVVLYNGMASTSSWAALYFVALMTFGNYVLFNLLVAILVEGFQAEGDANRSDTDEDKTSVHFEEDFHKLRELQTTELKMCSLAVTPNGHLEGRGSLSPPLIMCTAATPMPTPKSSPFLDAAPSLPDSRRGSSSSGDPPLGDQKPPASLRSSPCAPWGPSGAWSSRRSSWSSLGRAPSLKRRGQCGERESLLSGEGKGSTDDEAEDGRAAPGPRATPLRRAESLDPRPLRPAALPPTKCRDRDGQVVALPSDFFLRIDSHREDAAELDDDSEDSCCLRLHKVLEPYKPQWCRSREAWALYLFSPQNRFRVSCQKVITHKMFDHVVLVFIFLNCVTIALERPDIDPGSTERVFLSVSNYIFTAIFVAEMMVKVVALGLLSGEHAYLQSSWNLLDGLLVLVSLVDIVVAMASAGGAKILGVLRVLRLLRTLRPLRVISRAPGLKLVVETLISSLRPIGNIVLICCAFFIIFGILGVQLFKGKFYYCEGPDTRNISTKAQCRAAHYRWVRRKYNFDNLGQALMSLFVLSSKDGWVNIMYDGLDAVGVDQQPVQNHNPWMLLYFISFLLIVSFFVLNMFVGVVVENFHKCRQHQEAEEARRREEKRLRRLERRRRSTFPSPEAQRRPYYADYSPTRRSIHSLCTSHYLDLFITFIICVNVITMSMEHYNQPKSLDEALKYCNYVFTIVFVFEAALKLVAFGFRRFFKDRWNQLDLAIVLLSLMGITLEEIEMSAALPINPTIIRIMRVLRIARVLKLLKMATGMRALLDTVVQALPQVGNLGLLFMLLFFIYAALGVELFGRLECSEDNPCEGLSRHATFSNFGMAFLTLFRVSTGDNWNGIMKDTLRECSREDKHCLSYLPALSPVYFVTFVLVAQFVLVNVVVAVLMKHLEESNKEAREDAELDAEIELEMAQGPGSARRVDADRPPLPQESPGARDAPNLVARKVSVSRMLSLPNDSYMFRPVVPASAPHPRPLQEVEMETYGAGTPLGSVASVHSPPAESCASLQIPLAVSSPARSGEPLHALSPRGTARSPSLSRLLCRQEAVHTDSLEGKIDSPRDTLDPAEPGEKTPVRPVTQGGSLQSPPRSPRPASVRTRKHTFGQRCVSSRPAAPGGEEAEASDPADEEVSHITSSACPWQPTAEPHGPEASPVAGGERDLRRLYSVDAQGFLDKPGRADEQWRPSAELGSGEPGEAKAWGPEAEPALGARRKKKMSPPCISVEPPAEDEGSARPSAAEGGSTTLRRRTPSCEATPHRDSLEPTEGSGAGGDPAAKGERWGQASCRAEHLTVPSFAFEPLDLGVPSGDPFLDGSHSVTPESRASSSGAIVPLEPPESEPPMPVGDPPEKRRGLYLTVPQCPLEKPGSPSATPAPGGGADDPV
# Protocol text: Whole-cell patch-clamp (QPatch), CaV3.2
# Measurement parameters: whole-cell current, holding potential −90 mV, n = 3–5
Assay readout: IC50

Solved entries:
O=C(c1c[nH]c2ccccc12)c1c[nH]c2ccccc12    ~50 µM
O=C(c1cn(Cc2ccccc2)c2ccccc12)c1cn(Cc2ccccc2)c2ccccc12    2.97 µM

Kindly consider the entry below.
Ask: Quick check: IC50 of c1ccc2c(Cc3c[nH]c4ccccc34)c[nH]c2c1 [DIM, 3,3′-diindolylmethane, reference compound] ?
Result: 21.1 µM

----------
# Measured on: CaV3.3 (Homo sapiens, UniProt Q9P0X4)
# Sequence (Q9P0X4 whole entry): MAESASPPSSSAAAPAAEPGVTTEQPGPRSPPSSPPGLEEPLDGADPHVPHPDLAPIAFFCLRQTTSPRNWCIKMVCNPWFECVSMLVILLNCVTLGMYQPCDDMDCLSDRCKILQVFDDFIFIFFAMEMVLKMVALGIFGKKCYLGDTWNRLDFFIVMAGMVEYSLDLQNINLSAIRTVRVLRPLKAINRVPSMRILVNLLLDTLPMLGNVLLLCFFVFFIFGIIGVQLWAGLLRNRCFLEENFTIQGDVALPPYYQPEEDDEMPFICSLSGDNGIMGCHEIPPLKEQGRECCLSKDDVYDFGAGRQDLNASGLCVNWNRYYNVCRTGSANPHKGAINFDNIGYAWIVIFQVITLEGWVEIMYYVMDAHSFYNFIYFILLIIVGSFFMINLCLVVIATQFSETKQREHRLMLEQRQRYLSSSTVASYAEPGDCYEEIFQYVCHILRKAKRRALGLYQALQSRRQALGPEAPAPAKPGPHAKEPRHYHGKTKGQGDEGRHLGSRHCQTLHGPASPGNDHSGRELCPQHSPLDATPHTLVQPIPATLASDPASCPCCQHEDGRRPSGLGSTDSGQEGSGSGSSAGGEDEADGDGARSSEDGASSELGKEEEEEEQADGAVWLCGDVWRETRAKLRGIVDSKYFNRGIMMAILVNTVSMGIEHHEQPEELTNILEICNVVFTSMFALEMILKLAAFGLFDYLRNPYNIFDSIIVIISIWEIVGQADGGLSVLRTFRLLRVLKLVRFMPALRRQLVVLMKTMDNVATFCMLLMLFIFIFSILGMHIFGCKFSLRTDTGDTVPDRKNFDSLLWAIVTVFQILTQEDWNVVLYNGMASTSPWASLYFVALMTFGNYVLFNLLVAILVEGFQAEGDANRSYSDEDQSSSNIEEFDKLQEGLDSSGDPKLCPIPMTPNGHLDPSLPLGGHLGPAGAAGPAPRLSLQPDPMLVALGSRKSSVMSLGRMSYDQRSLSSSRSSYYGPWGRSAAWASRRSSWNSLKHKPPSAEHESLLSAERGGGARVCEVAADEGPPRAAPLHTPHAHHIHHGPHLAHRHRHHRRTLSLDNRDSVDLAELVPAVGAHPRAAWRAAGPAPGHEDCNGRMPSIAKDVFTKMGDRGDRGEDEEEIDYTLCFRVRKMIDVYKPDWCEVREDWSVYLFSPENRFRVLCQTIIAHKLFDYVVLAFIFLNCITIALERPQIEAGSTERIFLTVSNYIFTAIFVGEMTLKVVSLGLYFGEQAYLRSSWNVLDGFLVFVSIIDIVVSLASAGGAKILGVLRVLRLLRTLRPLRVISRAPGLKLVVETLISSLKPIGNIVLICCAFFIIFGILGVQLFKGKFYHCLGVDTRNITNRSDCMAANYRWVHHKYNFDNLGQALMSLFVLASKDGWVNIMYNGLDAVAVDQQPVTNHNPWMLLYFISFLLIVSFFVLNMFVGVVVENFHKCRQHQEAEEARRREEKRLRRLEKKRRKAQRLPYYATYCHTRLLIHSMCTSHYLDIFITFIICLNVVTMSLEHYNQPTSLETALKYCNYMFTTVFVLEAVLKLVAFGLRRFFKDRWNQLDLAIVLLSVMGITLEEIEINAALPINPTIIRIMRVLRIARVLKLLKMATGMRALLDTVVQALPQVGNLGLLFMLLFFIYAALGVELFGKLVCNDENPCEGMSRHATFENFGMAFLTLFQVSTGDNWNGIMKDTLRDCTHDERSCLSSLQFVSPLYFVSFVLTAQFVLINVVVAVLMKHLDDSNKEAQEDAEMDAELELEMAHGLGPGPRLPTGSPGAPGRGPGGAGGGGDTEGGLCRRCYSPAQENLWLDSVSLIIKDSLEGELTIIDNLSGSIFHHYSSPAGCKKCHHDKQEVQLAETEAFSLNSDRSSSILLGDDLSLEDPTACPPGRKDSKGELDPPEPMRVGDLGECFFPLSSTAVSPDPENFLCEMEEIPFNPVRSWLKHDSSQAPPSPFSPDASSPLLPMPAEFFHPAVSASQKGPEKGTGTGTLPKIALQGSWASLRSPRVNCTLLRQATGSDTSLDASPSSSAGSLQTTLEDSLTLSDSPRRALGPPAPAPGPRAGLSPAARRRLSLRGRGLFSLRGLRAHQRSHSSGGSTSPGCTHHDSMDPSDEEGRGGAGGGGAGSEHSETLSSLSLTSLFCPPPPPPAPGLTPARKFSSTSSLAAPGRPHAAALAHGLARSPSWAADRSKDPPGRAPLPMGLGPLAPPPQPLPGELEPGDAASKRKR
# Protocol text: T-type calcium channel window current FLIPR assay, CaV3.3
# Format: cell-based
# Measurement parameters: FLIPR window current, n = 3; read-out: IC50 CaV3.3 (LVA CaVs)
Assay readout: pIC50
Just so you know, pIC50 here is -log10 of the concentration in molar units; reply with that number alone.

Solved entries:
c1ccc2c(Cc3c[nH]c4ccccc34)c[nH]c2c1 [DIM, 3,3′-diindolylmethane, reference compound]    5.68
O=C(c1c[nH]c2cc(Br)ccc12)c1c[nH]c2cc(Br)ccc12    4.20
CCOC(=O)C(=O)c1cn(S(=O)(=O)c2ccc(C)cc2)c2ccccc12    4.86
Cc1ccc(S(=O)(=O)n2cc(C(=O)c3cn(S(=O)(=O)c4ccc(C)cc4)c4ccccc34)c3ccccc32)cc1    4.11
O=C(c1c[nH]c2cc(Br)ccc12)c1cn(S(=O)(=O)O)c2cc(Br)ccc12    4.03

Ask: Quick check: pIC50 of O=C(c1c[nH]c2ccccc12)c1cn(S(=O)(=O)O)c2ccccc12 ?
Result: 4.75

Ask: # repeat for O=C(c1c[nH]c2ccccc12)c1c[nH]c2ccccc12
Result: 5.04
